B1: library; a variant is named by its letters at N, in order (parent)
chain: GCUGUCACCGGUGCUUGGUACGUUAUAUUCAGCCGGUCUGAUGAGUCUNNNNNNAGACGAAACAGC

# Variants of: B1
# protocol-notes: normalized RNA/DNA level without ligand (relative to sTRSVctl = 100) (log10 (% of sTRSVctl)); HEK293T overexpressing SLC46A1; higher = less ribozyme self-cleavage, higher mRNA level
# test-settings: without (6R,S)-folinic acid; ligand present: no
Param threshold (2) applies to normalized RNA/DNA level without ligand (log10); output True when value >= threshold, False when value < threshold.

[[record]]
mutant_id = "GGAGCG"
class_assignment = "False"

[[record]]
mutant_id = "AUUGGA"
class_assignment = "False"

[[record]]
mutant_id = "CUUCGC"
class_assignment = "True"

[[record]]
mutant_id = "CCGACC"
class_assignment = "True"

[[record]]
mutant_id = "UGAACG"
class_assignment = "False"

[[record]]
mutant_id = "AAGUAA"
class_assignment = "False"

[[record]]
mutant_id = "GAUGUA"
class_assignment = "False"

[[record]]
mutant_id = "UUGCCU"
class_assignment = "True"

[[record]]
mutant_id = "AAAAAU"
class_assignment = "False"


FYI, the data here is from the supplement of paper PMC6757056.
